Experiment: Test 5 Acute toxicity (LD50, method of Behrens and Kärbar)
Format: in vivo
Details: mouse, in vivo, po, Table-5c, mice, observed for 7 days
Structures can show the parent of a compound that is named as a salt.
outcome_measure: LD50 at 168 h (mg/kg)

* CC(CN1CCCCC1)C(=O)c1ccc2c(c1)CCO2.Cl (stereo not shown) [Example 85] | 625
* CC(CN1CCCCCC1)C(=O)c1ccc2c(c1)CCO2.Cl (stereo not shown) [Example 93] | 685
* CCc1ccc(C(=O)C(C)CN2CCCCC2)cc1 (stereo not shown) [Eperisone HCl, Eperisone, reference compound] | 565
* Cc1ccc(C(=O)C(C)CN2CCCCC2)cc1 (stereo not shown) [Tolperisone HCl, reference compound] | 595
